Target: Cytochrome P450 2D6 (Homo sapiens) (UniProt P10635)
Sequence (P10635 whole entry, looked up): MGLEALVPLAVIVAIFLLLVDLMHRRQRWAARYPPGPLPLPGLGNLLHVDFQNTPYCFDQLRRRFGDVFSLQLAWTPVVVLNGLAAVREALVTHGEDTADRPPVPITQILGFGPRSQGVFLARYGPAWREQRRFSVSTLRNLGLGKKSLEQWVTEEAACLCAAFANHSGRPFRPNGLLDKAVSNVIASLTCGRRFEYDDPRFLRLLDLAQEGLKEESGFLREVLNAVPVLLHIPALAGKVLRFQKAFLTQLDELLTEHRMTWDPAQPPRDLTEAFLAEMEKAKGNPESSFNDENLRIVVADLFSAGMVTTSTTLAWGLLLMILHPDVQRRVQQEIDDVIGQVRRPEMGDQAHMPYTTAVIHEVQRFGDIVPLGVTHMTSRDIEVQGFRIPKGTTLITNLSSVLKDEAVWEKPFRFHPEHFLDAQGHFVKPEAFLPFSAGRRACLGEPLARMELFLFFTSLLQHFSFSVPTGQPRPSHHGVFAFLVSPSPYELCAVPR
Experiment: Cytochrome P450 family 2 subfamily D member 6 (CYP2D6) small molecule antagonists: luciferase biochemical (cell-free) qHTS assay (AID 1645840); note: nearly all actives have a fitted effect of over 55% in size
Details: P450-Glo CYP2D6 enzyme, luciferin luminescence, 1 h; series mostly up to 57.4 µM
Inconclusive results are not listed. The source made the active and inactive calls. Calls come from the whole dose curve; as a rule, active = well fitted inhibition curve with a large enough effect in the repeat runs; inconclusive = weak or mixed curves; inactive = flat fitted curve, though single readings scatter.
Give one outcome, nothing more. List: active, inactive

Given "CCN(CC)CCNc1ccc(CO)c2sc3ccccc3c(=O)c12" , state the outcome it received in this test.
active

Given "CCNC(=O)NCc1cccc(Cl)c1" , state the outcome it received in this test.
inactive

Given "CCOc1ccc(NC(C)=O)cc1" , state the outcome it received in this test.
inactive

Given CCC(Cc1c(I)cc(I)c(N)c1I)C(=O)O (configuration not stated) , state the outcome it received in this test.
active

Given "O=C(O)CCNC(=O)c1ccccc1" , state the outcome it received in this test.
inactive

Given "CN1CCN(c2cc3c(cc2F)c(=O)c(C(=O)O)cn3-c2ccc(F)cc2)CC1" , state the outcome it received in this test.
inactive

Given "COc1cc([C@H]2Oc3cc([C@H]4Oc5cc(O)cc(O)c5C(=O)[C@@H]4O)ccc3O[C@@H]2CO)ccc1O" , state the outcome it received in this test.
inactive

Given "O=C(O)P(=O)(O)O" , state the outcome it received in this test.
inactive

Given "CN(CCCN1c2ccccc2CCc2ccccc21)CC(=O)c1ccc(Cl)cc1" , state the outcome it received in this test.
active

Given "CCCc1ncc(C[n+]2ccccc2C)c(N)n1" , state the outcome it received in this test.
inactive

Given "CCOC(=O)[C@H](CCc1ccccc1)N[C@@H](C)C(=O)N1[C@H](C(=O)O)C[C@@H]2CCC[C@@H]21" , state the outcome it received in this test.
inactive

Given "O=c1[nH]c(=O)n([C@H]2C[C@H](O)[C@@H](CO)O2)cc1F" , state the outcome it received in this test.
inactive

Given "O=C(O)CCc1nc2ccccc2[nH]1" , state the outcome it received in this test.
inactive

Given "CC(C)Nc1cccnc1N1CCN(C(=O)c2cc3cc(NS(C)(=O)=O)ccc3[nH]2)CC1" , state the outcome it received in this test.
active

Given "CCOc1cc(OCC)c(C(=O)CCC(=O)O)cc1OCC" , state the outcome it received in this test.
inactive

Given "NC(=O)C1(N2CCCCC2)CCN(CCCC(=O)c2ccc(F)cc2)CC1" , state the outcome it received in this test.
active

Given "CCc1cc(Cl)c(OC)c(C(=O)NC[C@@H]2CCCN2CC)c1O" , state the outcome it received in this test.
active

Given CC(C)[N+](C)(C)CC(O)COc1cccc2ccccc12 (configuration not stated) , state the outcome it received in this test.
active

Given "NCCNc1cccc2ccccc12" , state the outcome it received in this test.
active

Given "CCCCCCCCCCCCCCC[C@H](O)[C@@H](N)CO" , state the outcome it received in this test.
active

Given "O=[N+]([O-])c1cccc(S(=O)(=O)NCCNS(=O)(=O)c2cccc([N+](=O)[O-])c2)c1" , state the outcome it received in this test.
inactive

Given "OCc1ccccn1" , state the outcome it received in this test.
inactive

Given "CCCCCCCCCCCCCC[N+](C)(C)Cc1ccccc1" , state the outcome it received in this test.
active

Given "Nc1ccc(S(=O)(=O)Nc2cnc3ccccc3n2)cc1" , state the outcome it received in this test.
inactive

Given "CCCCNC(=O)NS(=O)(=O)c1ccc(N)cc1" , state the outcome it received in this test.
inactive

Given CCC(C(=O)OCCOCCN(CC)CC)c1ccccc1 (configuration not stated) , state the outcome it received in this test.
active

Given "CNCCc1ccccn1" , state the outcome it received in this test.
inactive

Given "CCCCN1C[C@H](O)[C@@H](O)[C@H](O)[C@H]1CO" , state the outcome it received in this test.
inactive

Given "C[C@H]1[C@H]2CC[C@H]3[C@@H]4CC=C5C[C@@H](N(C)C)CC[C@]5(C)[C@H]4CC[C@]23CN1C" , state the outcome it received in this test.
inactive

Given CN(C)CCOC(c1ccc(Cl)cc1)c1ccccn1 (configuration not stated) , state the outcome it received in this test.
active

Given C[N+]12CCC(CC1)C(OC(=O)C(O)(c1ccccc1)c1ccccc1)C2 (configuration not stated) , state the outcome it received in this test.
active

Given "O=C(N/N=C/c1ccc([N+](=O)[O-])o1)c1ccc(O)cc1" , state the outcome it received in this test.
active

Given "CCCCCCCCCCCCCCCCO" , state the outcome it received in this test.
inactive

Given "CCCCCCCC/C=C\CCCCCCCCN" , state the outcome it received in this test.
active

Given "CC(C)Cn1cnc2c1c(=O)n(C)c(=O)n2C" , state the outcome it received in this test.
inactive

Given "C[C@]12CCC(=O)C=C1C=C[C@@H]1[C@@H]2CC[C@@]2(C)[C@H]1CC[C@@]21CCC(=O)O1" , state the outcome it received in this test.
inactive

Given "CCCCCCCCCCCCOCCOCCOCCOCCOCCOCCOCCOCCOCCO" , state the outcome it received in this test.
active

Given "C[C@@H](O)[C@H]1C(=O)N2C(C(=O)O)=C(S[C@@H]3CN[C@H](CNS(N)(=O)=O)C3)[C@H](C)[C@H]12" , state the outcome it received in this test.
inactive

Given "O=C(Nc1cccc(C2=NCCN2)c1)Nc1cccc(C2=NCCN2)c1" , state the outcome it received in this test.
inactive

Given "NS(=O)(=O)c1ccc(Cl)c(S(N)(=O)=O)c1" , state the outcome it received in this test.
inactive

Given "NCc1ccccc1Sc1ccccc1CO" , state the outcome it received in this test.
active

Given "CC(=O)OC[C@H]1O[C@@H](n2ncc(=O)[nH]c2=O)[C@H](OC(C)=O)[C@@H]1OC(C)=O" , state the outcome it received in this test.
active

Given "CN(Cc1ccc(C(C)(C)C)cc1)Cc1cccc2ccccc12" , state the outcome it received in this test.
active

Given "CC[C@]12CCCN3CCc4c(n(c5ccccc45)C(=O)C1)[C@@H]32" , state the outcome it received in this test.
active

Given CC1CCc2c(N3CCC(O)CC3)c(F)cc3c(=O)c(C(=O)O)cn1c23 (configuration not stated) , state the outcome it received in this test.
inactive

Given "COc1cc(O)c(C(=O)c2ccccc2)cc1S(=O)(=O)O" , state the outcome it received in this test.
inactive

Given COP(=O)(OC)OC(c1ccc(Cl)cc1)P(=O)(OC)OC (configuration not stated) , state the outcome it received in this test.
inactive

* * *

Experiment: qHTS profiling for inhibitors of Plasmodium falciparum proliferation (AID 504749);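 note: 0% = DMSO vehicle and full inhibition = artemisinin control; nearly all actives have a fitted effect of over 60% in size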
Details: P. falciparum in erythrocytes, SYBR Green DNA, 72 h; at 12.8 µM (top of the series); parasite line B
Results filed as inconclusive are left out.
VALUE KIND: activity, negative = inhibition (%)
Numeric only. Scale: %

Output measured activity, negative = inhibition for this item: "CCCCc1cc2ccccc2c(OCCN(C)C)n1"
4.66

Output measured activity, negative = inhibition for this item: "CN1CCC(OC(c2ccccc2)c2ccccc2)CC1"
-2.27

Output measured activity, negative = inhibition for this item: "CNCCc1ccccn1"
8.04

Output measured activity, negative = inhibition for this item: "CCOC(=O)c1ccc(N)cc1"
7.01

Output measured activity, negative = inhibition for this item: "CCCc1ncc(C[n+]2ccccc2C)c(N)n1"
12

Output measured activity, negative = inhibition for this item: "COc1cc(C(=O)NCc2ccc(OCCN(C)C)cc2)cc(OC)c1OC"
-4.52

Output measured activity, negative = inhibition for this item: "COc1cc(C)nc(-n2nc(C)cc2OC)n1"
-3.99

Output measured activity, negative = inhibition for this item: "CCOC(=O)Nc1ccc2c(c1)N(C(=O)CCN1CCOCC1)c1ccccc1S2"
22.5

Output measured activity, negative = inhibition for this item: "Nc1ccc(C(=O)NCC(=O)O)cc1"
8.58

Output measured activity, negative = inhibition for this item: "Cc1c(-c2ccccc2)oc2c(C(=O)OCCN3CCCCC3)cccc2c1=O"
6.11

Output measured activity, negative = inhibition for this item: O=C1C(CCS(=O)c2ccccc2)C(=O)N(c2ccccc2)N1c1ccccc1 (configuration not stated)
5.16

Output measured activity, negative = inhibition for this item: "CCCCNc1ccc(C(=O)OCCOCCOCCOCCOCCOCCOCCOCCOCCOC)cc1"
-9.92

* * *

Assay: Drug repurposing screens with cells derived from glioblastoma tumor samples (AID 1345199); note: % is set by controls: 0 for no effect and ±100 for the full control effect; nearly all actives have a fitted effect of over 40% in size
Settings: GBM patient neurospheres viability, ATP luminescence, 48 h; at 21.3 µM (top of the series); tumour line A
Protocol: CD133+ cells were isolated from GBM patient biopsies and cultured as neurospheres. Neurospheres from four patients were used to screen the NCATS pharmaceutical collection (NPC) library of approved drugs and bioactive compounds. […] The neurospheres were incubated with drugs for 48 hours in 1536-well format, then assayed with an ATP content cell viability assay. […]
Inconclusive results are not listed.
For each record, write down the corresponding activity, negative = cell killing.
Numeric only. Scale: %

Output measured activity, negative = cell killing for this item: "Cc1c(-c2ccccc2)oc2c(C(=O)OCCN3CCCCC3)cccc2c1=O"
-8.03

Output measured activity, negative = cell killing for this item: "CCOC(=O)[C@@](C)(N)Cc1ccc(O)c(O)c1"
-12.3

Output measured activity, negative = cell killing for this item: "O=C(O)CCC(=O)Nc1ccc(S(=O)(=O)Nc2nccs2)cc1"
-13.6

Output measured activity, negative = cell killing for this item: "NS(=O)(=O)c1cc(C(=O)O)cc(N2CCCC2)c1Oc1ccccc1"
-12.4

Output measured activity, negative = cell killing for this item: CC(C)(C)NCC(O)COc1cccc2c1C[C@H](O)[C@H](O)C2 (stereo partly specified)
-16.2

Output measured activity, negative = cell killing for this item: NS(=O)(=O)c1cc2c(cc1Cl)NC(CC1CCCC1)NS2(=O)=O (stereo unspecified)
-13.5
